Cited source for all entries: ChEMBL document CHEMBL4665761

Target: UDP-glucuronosyltransferase 2B15 (Homo sapiens, UniProt P54855)
Sequence (P54855 whole entry): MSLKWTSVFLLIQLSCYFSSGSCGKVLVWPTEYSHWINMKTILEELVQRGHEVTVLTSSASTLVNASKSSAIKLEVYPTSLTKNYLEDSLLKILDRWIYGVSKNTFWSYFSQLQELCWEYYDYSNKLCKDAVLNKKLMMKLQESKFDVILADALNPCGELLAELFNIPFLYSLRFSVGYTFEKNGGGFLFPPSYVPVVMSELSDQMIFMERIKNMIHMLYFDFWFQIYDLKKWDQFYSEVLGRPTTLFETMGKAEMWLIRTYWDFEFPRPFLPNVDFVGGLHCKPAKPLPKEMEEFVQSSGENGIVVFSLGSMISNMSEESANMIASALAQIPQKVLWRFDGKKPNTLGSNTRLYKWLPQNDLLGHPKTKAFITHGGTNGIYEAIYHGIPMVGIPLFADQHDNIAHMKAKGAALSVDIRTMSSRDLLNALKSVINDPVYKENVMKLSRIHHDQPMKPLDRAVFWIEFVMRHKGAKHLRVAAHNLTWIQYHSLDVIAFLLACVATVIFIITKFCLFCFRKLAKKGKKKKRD
Experiment: Inhibition of UGT2B15 in human liver microsomes in presence of UDPGA by LC-MS/MS analysis
property_name: IC50

compound COc1cc(C(=O)N2CCC3(CC2)CC(=O)c2c(cnn2C(C)C)C3)cc(-c2ccc(C(=O)O)cc2)n1 , IC50 observed: > 20 µM

----------
Experiment: Cmax in Wistar-Hannover rat plasma at 5 mg/kg, po tris(hydroxymethyl)aminomethane (tris) salt form of compound and measured up to 24 hrs by LC/MS-MS analysis
Type: ADME, organism-based
Parameters: route oral, dose 5 mg/kg, time <=24
property_name: Cmax (ng/mL)
Kindly answer with a numeric value in ng/mL, unit omitted.

molecule COc1cc(C(=O)N2CCC3(CC2)CC(=O)c2c(cnn2C(C)C)C3)cc(-c2ccc(C(=O)O)cc2)n1.NC(CO)(CO)CO , Cmax observed: 390

----------
Assay: AUC (0 to 24 hrs) in Wistar-Hannover rat plasma at 1 mg/kg, iv and measured up to 24 hrs by LC/MS-MS analysis
Format: ADME, organism-based
Parameters: route intravenous, dose 1 mg/kg, time <=24
Recorded AUC(0-t), one value per entry.
Kindly answer with a numeric value in ng·h/mL, unit omitted.

Consider the reported AUC(0-t) for these molecules:
chem_smiles: CC(C)n1ncc2c1C(=O)CC1(CCN(C(=O)c3cc(-c4ccc(C(=O)O)cc4)nc(N(C)C)c3)CC1)C2
AUC(0-t) (ng·h/mL): 519

chem_smiles: COc1cc(C(=O)N2CCC3(CC2)CC(=O)c2nn(C(C)(C)C)cc2O3)cc(-c2ccc(C(=O)O)cc2)n1
AUC(0-t) (ng·h/mL): 299

Alright, here's another molecule for you.
molecule COc1cc(C(=O)N2CCC3(CC2)CC(=O)c2c(cnn2C(C)C)C3)cc(-c2ccc(C(=O)O)cc2)n1 , AUC(0-t) observed: 965

----------
Assay: Half life in Wistar-Hannover rat plasma at 4 mg/kg, po and measured up to 24 hrs by LC/MS-MS analysis
Type: ADME, organism-based
property_name: half-life (h)
Kindly answer with a numeric value in h, unit omitted.

compound COc1cc(C(=O)N2CCC3(CC2)CC(=O)c2nn(C(C)(C)C)cc2O3)cc(-c2ccc(C(=O)O)cc2)n1 , half-life observed: 5.7

----------
Test: Half life in Wistar-Hannover rat plasma at 5 mg/kg, po tris(hydroxymethyl)aminomethane (tris) salt form of compound and measured up to 24 hrs by LC/MS-MS analysis
Assay type: ADME, organism-based
property_name: half-life (h)
Kindly answer with a numeric value in h, unit omitted.

compound COc1cc(C(=O)N2CCC3(CC2)CC(=O)c2c(cnn2C(C)C)C3)cc(-c2ccc(C(=O)O)cc2)n1.NC(CO)(CO)CO [CLESACOSTAT TROMETHAMINE] , half-life observed: 5.6

----------
Recorded logD at 1 h, one value per entry.
Experiment: Octanol-water partition coefficient, logD of compound at pH 7.4 at 0.5 to 2 mg incubated for 1 hr by HPLC based shake-flask method
Format: physicochemical
Conditions: dose 0.5-2 mg
Please state the value as a number alone, without comment.

compound: CC(C)(C)n1cc2c(n1)C(=O)CC1(CCN(C(=O)c3ccnc(-c4ccc(C(=O)O)cc4)c3)CC1)O2
logD at 1 h: -0.4
--
compound: COc1cc(C(=O)N2CCC3(CC2)CC(=O)c2c(cnn2C(C)C)C3)cc(-c2ccc(C(=O)O)cc2)n1 [CLESACOSTAT]
logD at 1 h: 1.1
--
compound: CN(C)c1cc(C(=O)N2CCC3(CC2)CC(=O)c2nn(C(C)(C)C)cc2O3)cc(-c2ccc(C(=O)O)cc2)n1
logD at 1 h: 0.8

compound CC(C)n1ncc2c1C(=O)CC1(CCN(C(=O)c3cc(-c4ccc(C(=O)O)cc4)nc(N(C)C)c3)CC1)C2 , logD at 1 h observed: 1.4

compound COc1cc(C(=O)N2CCC3(CC2)CC(=O)c2nn(C(C)(C)C)cc2O3)cc(-c2ccc(C(=O)O)cc2)n1 , logD at 1 h observed: 0.5

----------
Target: OATP1B3 (Homo sapiens, UniProt Q9NPD5)
Sequence (Q9NPD5 whole entry): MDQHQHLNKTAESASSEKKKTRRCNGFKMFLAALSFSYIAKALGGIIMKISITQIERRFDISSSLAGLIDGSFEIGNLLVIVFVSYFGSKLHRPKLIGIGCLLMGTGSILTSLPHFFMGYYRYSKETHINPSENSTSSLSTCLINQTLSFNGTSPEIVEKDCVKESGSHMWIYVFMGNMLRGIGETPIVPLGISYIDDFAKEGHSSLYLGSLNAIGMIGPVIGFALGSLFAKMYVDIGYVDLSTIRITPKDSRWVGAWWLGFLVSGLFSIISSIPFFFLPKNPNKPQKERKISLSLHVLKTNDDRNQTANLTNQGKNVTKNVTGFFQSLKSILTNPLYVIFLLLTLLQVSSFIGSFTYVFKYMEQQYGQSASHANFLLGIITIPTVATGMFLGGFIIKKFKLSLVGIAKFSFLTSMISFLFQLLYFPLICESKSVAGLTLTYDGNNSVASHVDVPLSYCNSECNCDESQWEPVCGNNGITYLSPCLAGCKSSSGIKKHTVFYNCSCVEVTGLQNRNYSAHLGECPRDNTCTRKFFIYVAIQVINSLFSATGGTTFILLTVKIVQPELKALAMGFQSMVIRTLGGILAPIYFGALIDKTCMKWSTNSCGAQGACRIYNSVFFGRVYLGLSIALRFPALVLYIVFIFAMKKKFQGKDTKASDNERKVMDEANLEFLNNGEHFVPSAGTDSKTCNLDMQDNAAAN
Experiment: Substrate activity at human OATP1B3 stably expressed in HEK293 cells assessed as ratio of total to passive cellular uptake at 1 to 3 uM incubated for 0.5 to 4 mins by LC/MS-MS analysis
Type: ADME, cell-based
Details: HEK293 cells stably expressing human OATP1B3, dose 1-3 µM, time 0.5-4 min
property_name: uptake ratio at up to 3 µM

chem_smiles: CC(C)n1ncc2c1C(=O)CC1(CCN(C(=O)c3cc(-c4ccc(C(=O)O)cc4)nc(N(C)C)c3)CC1)C2
experimental_system: OATP1B3 (Homo sapiens, UniProt Q9NPD5)
uptake ratio at up to 3 µM: 1.4

Alright, here's another molecule for you.
molecule COc1cc(C(=O)N2CCC3(CC2)CC(=O)c2c(cnn2C(C)C)C3)cc(-c2ccc(C(=O)O)cc2)n1 , uptake ratio at up to 3 µM observed: 2.5

----------
Recorded solubility thermodynamic at 24 h, one value per entry.
Assay: Thermodynamic solubility of the compound at pH 1.2 after 24 hrs
Type: physicochemical
Conditions: buffer, read-out: Therm_solubility
Kindly answer with a numeric value in µM, unit omitted.

compound: CC(C)n1ncc2c1C(=O)CC1(CCN(C(=O)c3cc(-c4ccc(C(=O)O)cc4)nc(N(C)C)c3)CC1)C2
property_name: solubility thermodynamic at 24 h
readout_unit: µM
quantitative_result: 2

compound COc1cc(C(=O)N2CCC3(CC2)CC(=O)c2c(cnn2C(C)C)C3)cc(-c2ccc(C(=O)O)cc2)n1 [CLESACOSTAT] , solubility thermodynamic at 24 h observed: 8

----------
Assay: Metabolic intrinsic clearance in human hepatocytes assessed per million cells incubated for 2 hrs
Type: ADME, cell-based, Hepatocyte
Settings: read-out: CLH
Recorded hepatocyte CLint, one value per entry.

chem_smiles: COc1cc(C(=O)N2CCC3(CC2)CC(=O)c2c(cnn2C(C)C)C3)cc(-c2ccc(C(=O)O)cc2)n1
hepatocyte CLint: < 3 µL/min/1e6 cells

compound CC(C)n1ncc2c1C(=O)CC1(CCN(C(=O)c3cc(-c4ccc(C(=O)O)cc4)nc(N(C)C)c3)CC1)C2 , hepatocyte CLint observed: < 3 µL/min/1e6 cells

compound COc1cc(C(=O)N2CCC3(CC2)CC(=O)c2nn(C(C)(C)C)cc2O3)cc(-c2ccc(C(=O)O)cc2)n1 , hepatocyte CLint observed: < 3 µL/min/1e6 cells

compound CN(C)c1cc(C(=O)N2CCC3(CC2)CC(=O)c2nn(C(C)(C)C)cc2O3)cc(-c2ccc(C(=O)O)cc2)n1 , hepatocyte CLint observed: 7.5 µL/min/1e6 cells

----------
Assay: Drug uptake in cynomolgus monkey liver at 1 mg/kg, iv tris(hydroxymethyl)aminomethane (tris) salt form of compound after 6 hrs by LC/MS-MS analysis
Type: ADME, organism-based, Macaca fascicularis
Settings: read-out: Drug uptake
property_name: concentration at 6 h (ng/mL)
Kindly answer with a numeric value in ng/mL, unit omitted.

molecule COc1cc(C(=O)N2CCC3(CC2)CC(=O)c2c(cnn2C(C)C)C3)cc(-c2ccc(C(=O)O)cc2)n1.NC(CO)(CO)CO , concentration at 6 h observed: 1300

----------
Recorded fraction unbound, one value per entry.
Assay: Fraction unbound in rat liver by equilibrium dialysis method

Consider the reported fraction unbound for these compounds:
compound: CC(C)n1ncc2c1C(=O)CC1(CCN(C(=O)c3cc(-c4ccc(C(=O)O)cc4)nc(N(C)C)c3)CC1)C2
result: 0.026
//
compound: COc1cc(C(=O)N2CCC3(CC2)CC(=O)c2c(cnn2C(C)C)C3)cc(-c2ccc(C(=O)O)cc2)n1 [CLESACOSTAT]
result: 0.066

Alright, here's another compound for you.
compound COc1cc(C(=O)N2CCC3(CC2)CC(=O)c2nn(C(C)(C)C)cc2O3)cc(-c2ccc(C(=O)O)cc2)n1 , fraction unbound observed: 0.07

----------
Assay: AUC (0 to 24 hrs) in cynomolgus monkey plasma at 1 mg/kg, iv and measured up to 72 hrs by LC/MS-MS analysis
Assay type: ADME, organism-based, Macaca fascicularis
Set-up: route intravenous, dose 1 mg/kg, time <=72
property_name: AUC(0-t)
Please make sure the unit comes right after the number.

compound COc1cc(C(=O)N2CCC3(CC2)CC(=O)c2c(cnn2C(C)C)C3)cc(-c2ccc(C(=O)O)cc2)n1 , AUC(0-t) observed: 14000 ng·h/mL

----------
Biological target: UDP-glucuronosyltransferase 2B7 (Homo sapiens)
Sequence (P16662 whole entry): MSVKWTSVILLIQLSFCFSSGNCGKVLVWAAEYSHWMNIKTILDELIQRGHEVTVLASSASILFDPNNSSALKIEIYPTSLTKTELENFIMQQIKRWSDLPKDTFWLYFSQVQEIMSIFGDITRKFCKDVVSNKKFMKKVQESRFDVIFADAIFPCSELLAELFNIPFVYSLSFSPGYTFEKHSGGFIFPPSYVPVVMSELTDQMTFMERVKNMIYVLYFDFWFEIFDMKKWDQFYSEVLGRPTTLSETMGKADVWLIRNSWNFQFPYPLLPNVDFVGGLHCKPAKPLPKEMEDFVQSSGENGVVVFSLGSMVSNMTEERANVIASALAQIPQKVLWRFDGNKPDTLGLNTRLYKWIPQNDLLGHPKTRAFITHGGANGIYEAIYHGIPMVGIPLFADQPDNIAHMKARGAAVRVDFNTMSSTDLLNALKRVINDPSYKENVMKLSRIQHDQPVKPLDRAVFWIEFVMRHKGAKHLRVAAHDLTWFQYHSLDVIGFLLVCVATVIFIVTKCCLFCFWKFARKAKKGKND
Experiment: Inhibition of UGT2B7 in human liver microsomes incubated for 60 mins in presence of UDPGA by LC-MS/MS analysis
pIC50: −log10 of the molar value.
property_name: pIC50

compound COc1cc(C(=O)N2CCC3(CC2)CC(=O)c2c(cnn2C(C)C)C3)cc(-c2ccc(C(=O)O)cc2)n1 , pIC50 observed: < 4.70

----------
Biological target: Solute carrier family 22 member 6 (Homo sapiens, UniProt Q4U2R8)
Sequence (Q4U2R8 whole entry): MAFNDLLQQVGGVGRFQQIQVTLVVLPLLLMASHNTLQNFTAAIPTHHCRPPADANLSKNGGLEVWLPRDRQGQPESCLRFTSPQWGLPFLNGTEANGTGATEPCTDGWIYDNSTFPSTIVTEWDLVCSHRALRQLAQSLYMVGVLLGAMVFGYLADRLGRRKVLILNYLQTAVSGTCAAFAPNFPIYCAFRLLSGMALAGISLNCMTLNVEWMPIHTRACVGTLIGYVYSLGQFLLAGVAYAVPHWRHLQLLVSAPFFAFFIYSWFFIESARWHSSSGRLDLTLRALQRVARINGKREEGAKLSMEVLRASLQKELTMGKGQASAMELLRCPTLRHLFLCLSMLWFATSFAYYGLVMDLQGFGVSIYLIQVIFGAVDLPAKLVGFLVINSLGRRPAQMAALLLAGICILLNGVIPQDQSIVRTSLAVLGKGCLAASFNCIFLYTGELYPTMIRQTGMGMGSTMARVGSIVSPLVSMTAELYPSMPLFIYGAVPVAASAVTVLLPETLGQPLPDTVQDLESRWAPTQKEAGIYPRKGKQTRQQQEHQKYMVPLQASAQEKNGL
Experiment: Inhibition of human SLC22A6 expressed in HEK293 cells in presence of para-aminohippuric acid/metformin
pIC50: −log10 of the molar value.
property_name: pIC50

compound COc1cc(C(=O)N2CCC3(CC2)CC(=O)c2c(cnn2C(C)C)C3)cc(-c2ccc(C(=O)O)cc2)n1 [CLESACOSTAT] , pIC50 observed: < 4.52
